// values below are reported Binding affinity (RU)
# Target or system: acetylcholine receptor
# Protocol notes: SPR, receptor immobilized on CM5 chip, peptide 10 uM
Write the answer as a number in RU, unit excluded.

                binder  observed_result
0  RLITRR [6mer-2-422]              154
1  RSRQKK [6mer-2-411]              121

I would be grateful if you could share the reported Binding affinity (RU) for KKLYCK [6mer-1-298] .
147
